System: fungal mating GPCRs (Ste2-like, xy.Ste2) expressed in S. cerevisiae strain JTy014
Assay type: cell-based, Ascomycete species of the code; expressed in S. cerevisiae
SETUP CONDITIONS: fit parameter of the dose-response curve, A600-normalised RFP fluorescence, 8 h, triplicate; GPCR of the same code
QUANTITY NAME: Bttm (basal activation)
Lab note: jot the number down without any unit.

These recorded examples may help you get a feel for the data.
- SUBSTANCE: "QWCR---IHGQSCW [Nc, mature mating peptide ligand 1, Neurospora crassa]"
  Bttm (basal activation): 27.6
- SUBSTANCE: "KPHWTTYGYYEPQ [Cp, mature mating peptide ligand 1, Candida parapsilosis]"
  Bttm (basal activation): 36.2
- SUBSTANCE: "FCWRPGQPCG [Pd, mature mating peptide ligand 1, Pseudogymnoascus destructans]"
  Bttm (basal activation): 28.8
- SUBSTANCE: "WCGHIGQGC [Pr, mature mating peptide ligand 1, Penicillium chrysogenum]"
  Bttm (basal activation): 27.9
- SUBSTANCE: "WCMRPGQPCW [Bb, mature mating peptide ligand 1, Beauvaria bassiana]"
  Bttm (basal activation): 25.2
- SUBSTANCE: "WCTRPGQGC [Pb, mature mating peptide ligand 1, Paracoccidioides brasiliensis]"
  Bttm (basal activation): 20.2

response.value for WCGRPGQPC [Bc, mature mating peptide ligand 1, Botrytis cinerea] (field: Bttm (basal activation)) = 28.6

Noted for WCYRIGEPCW [Hj, mature mating peptide ligand 1, Hypocrea jecorina] : its Bttm (basal activation) reads 53.0

Source: paper PMC6265332
